- experimental-system: T1, recombinant human TL1A (human, UniProt O95150 71-251)
- T1 chain: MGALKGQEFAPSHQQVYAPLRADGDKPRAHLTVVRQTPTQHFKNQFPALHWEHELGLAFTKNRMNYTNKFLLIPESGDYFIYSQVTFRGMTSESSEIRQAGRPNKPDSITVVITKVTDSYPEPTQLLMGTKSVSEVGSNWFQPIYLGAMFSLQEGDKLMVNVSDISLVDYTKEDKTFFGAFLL
- run-description: cell-based or functional assay
measurement-name: Whole blood IFNγ assay, Bioactivity relative to TL1A-0002 (fold)
API: value field is a number in fold; no unit string.

Some solved cases for reference:
>>> val("TL1A-0289 (antibody, human IgG1, kappa, V domains shown, human IgG1 effector-function-minimized/kappa) VH: QVQLVQSGAEVKKPGASVKVSCKASGYDFTYYGVSWVRQAPGQGLEWMGWISTYNTGTHYAPSLQGRVTMTTDTSTSTAYMELRSLRSDDTAVYYCARESYYGSGAHRGGMDVWGQGTTVTVSS VL: DIQMTQSPSSLSASVGDRVTITCRASQSVSSYLAWYQQKPGKAPKLLIYDASNRATGVPSRFSGSGSGTDFTLTISSLQPEDFATYYCQQRSNWPWTFGQGTKVEIKR")
1
>>> val("TL1A-0042 (antibody, human IgG1, kappa, V domains shown, parental heavy chain with IGKV1-39*01 light chain; human IgG1 effector-function-minimized/kappa) VH: QVQLVQSGAEVKKPGASVKVSCKASGYDFTYYGISWVRQAPGQGLEWMGWISTYNGNTHYARMLQGRVTMTTDTSTRTAYMELRSLRSDDTAVYYCARENYYGSGAYRGGMDVWGQGTTVTVSS VL: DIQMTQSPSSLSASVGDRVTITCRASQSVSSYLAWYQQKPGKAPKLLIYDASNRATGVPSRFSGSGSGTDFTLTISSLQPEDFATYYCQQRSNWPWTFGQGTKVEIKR")
0.9

For record TL1A-0267 (antibody, human IgG1, kappa, V domains shown, human IgG1 effector-function-minimized/kappa) VH: QVQLVQSGAEVKKPGASVKVSCKASGYDYTYYGISWVRQAPGQGLEWMGWISTYNTNTHYAPSLQGRVTMTTDTSTSTAYMELRSLRSDDTAVYYCARESYYGSGAHRGGMDVWGQGTTVTVSS VL: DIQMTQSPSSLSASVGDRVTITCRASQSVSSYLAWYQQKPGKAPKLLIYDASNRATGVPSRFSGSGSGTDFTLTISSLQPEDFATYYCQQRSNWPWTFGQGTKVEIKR the listed Whole blood IFNγ assay, Bioactivity relative to TL1A-0002 is 1.1

The reported measurements were obtained from patent US20240059799A1.
